Target: Prostaglandin G/H synthase 2 (Homo sapiens, UniProt P35354)
Sequence (P35354 whole entry): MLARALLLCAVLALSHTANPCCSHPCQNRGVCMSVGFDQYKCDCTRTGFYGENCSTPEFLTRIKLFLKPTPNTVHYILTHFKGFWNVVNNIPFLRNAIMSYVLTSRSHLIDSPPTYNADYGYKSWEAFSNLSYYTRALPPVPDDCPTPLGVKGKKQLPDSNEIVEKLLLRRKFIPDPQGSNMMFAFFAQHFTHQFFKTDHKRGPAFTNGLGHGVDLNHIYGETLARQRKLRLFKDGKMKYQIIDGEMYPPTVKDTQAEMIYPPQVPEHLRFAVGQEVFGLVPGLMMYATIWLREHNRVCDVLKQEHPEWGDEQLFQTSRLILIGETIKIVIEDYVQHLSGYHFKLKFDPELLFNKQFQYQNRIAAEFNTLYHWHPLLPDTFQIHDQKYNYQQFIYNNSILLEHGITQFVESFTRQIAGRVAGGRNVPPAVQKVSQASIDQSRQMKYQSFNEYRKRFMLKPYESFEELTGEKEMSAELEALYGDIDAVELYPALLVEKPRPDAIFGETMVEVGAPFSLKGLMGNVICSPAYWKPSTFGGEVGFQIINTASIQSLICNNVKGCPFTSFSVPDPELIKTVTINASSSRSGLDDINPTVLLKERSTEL
Test: Inhibition of COX2 in LPS-stimulated human monocytes assessed as reduction in PGE2 production by LC-tandem MIS analysis
measuredAttribute: pIC50
Value format note: pIC50 is -log10 of concentration (mol/L); just state the number.

> print(dat)
                                   compound  measuredattribute  numericreadout
1  O=C(O)CCc1nc(-c2ccccc2)c(-c2ccccc2)o1 [OXAPROZIN]              pIC50            6.96

Noted for O=C(O)CCCc1nc(-c2ccc(Cl)c(Cl)c2)c(-c2ccccc2)o1 : its pIC50 reads 6.38

---

Molecular target: Bifunctional epoxide hydrolase 2 (Homo sapiens)
Sequence (P34913 whole entry, the tested form may be a part): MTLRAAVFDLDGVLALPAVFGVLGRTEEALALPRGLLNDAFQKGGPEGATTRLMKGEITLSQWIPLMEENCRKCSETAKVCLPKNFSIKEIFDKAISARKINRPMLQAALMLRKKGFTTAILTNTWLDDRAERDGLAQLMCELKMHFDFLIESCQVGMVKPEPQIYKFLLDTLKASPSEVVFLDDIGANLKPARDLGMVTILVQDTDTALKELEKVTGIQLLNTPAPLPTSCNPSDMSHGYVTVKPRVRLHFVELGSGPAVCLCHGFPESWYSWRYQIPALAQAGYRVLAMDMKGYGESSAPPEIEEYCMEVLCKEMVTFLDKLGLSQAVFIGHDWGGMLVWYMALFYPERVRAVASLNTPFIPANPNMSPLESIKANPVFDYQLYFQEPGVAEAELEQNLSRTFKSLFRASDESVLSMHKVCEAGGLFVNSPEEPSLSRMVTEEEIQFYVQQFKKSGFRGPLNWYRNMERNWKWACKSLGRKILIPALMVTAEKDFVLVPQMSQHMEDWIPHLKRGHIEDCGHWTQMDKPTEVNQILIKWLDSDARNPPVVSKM
Assay: Inhibition of phosphatase activity of full length human soluble epoxide hydrolase pre-incubated for 30 mins before FDP substrate addition by fluorescence based assay
measuredAttribute: IC50 (nM)
Enter your answer as a number in nM; do not include the unit.

> print(dat)
                                   compound  numericreadout
1     O=c1c2ccccc2[se]n1-c1ccccc1 [EBSELEN]             420
2  CC(=O)N[C@@H](CSC/C=C(\C)CC/C=C(\C)CCC=C(C)C)C(=O)O            2040

Consider now this further compound.
Noted for O=C(O)CCc1nc(-c2ccccc2)c(-c2ccccc2)o1 [OXAPROZIN] : its IC50 reads 70000

---

Biological target: Bifunctional epoxide hydrolase 2 (Homo sapiens)
Assay: Inhibition of hexa-His-tagged human soluble epoxide hydrolase C-terminal hydrolase domain expressed in Escherichia coli BL21(DE3) pre-incubated for 30 mins before PHOME substrate addition by fluorescence based assay
measuredAttribute: IC50 (µM)
Enter your answer as a number in µM; do not include the unit.

> print(dat)
                chemicalstring  unitslabel  numericreadout
1  O=c1c2ccccc2[se]n1-c1ccccc1          µM            0.11

Consider now this further molecule.
Noted for O=C(O)CCCc1nc(-c2ccc(Cl)c(Cl)c2)c(-c2ccccc2)o1 : its IC50 reads 12

---

Items are presented alongside their recorded IC50.
Target: Bifunctional epoxide hydrolase 2 (Mus musculus, UniProt P34914)
Sequence (P34914 whole entry): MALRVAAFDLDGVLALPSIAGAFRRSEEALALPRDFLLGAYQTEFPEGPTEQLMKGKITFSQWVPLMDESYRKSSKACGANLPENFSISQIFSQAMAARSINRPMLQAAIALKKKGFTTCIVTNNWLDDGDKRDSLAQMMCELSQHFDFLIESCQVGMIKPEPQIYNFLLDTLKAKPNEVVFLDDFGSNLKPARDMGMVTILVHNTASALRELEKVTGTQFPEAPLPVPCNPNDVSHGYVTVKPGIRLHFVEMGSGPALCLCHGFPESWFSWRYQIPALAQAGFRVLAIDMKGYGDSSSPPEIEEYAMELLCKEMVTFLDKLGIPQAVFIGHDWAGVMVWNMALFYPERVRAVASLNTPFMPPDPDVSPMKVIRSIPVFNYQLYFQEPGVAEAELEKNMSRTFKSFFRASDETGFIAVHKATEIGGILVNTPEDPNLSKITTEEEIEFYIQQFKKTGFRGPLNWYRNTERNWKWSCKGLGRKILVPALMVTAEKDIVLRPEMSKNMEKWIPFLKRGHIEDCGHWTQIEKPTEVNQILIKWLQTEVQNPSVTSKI
Test: Inhibition of hydrolase activity of full length mouse soluble epoxide hydrolase pre-incubated for 30 mins before PHOME substrate addition by fluorescence based assay

Noted for O=C(O)CCc1nc(-c2ccccc2)c(-c2ccccc2)o1 : its IC50 reads > 300 µM

Noted for O=C(O)CCCc1nc(-c2ccc(Cl)c(Cl)c2)c(-c2ccccc2)o1 : its IC50 reads > 30 µM

All values here come from ChEMBL document CHEMBL4414562.
